TARGET_OR_SYSTEM: PpsB (6x His-PpsB) (Mycobacterium tuberculosis, UniProt P9WQE5)
Sequence (P9WQE5 whole entry): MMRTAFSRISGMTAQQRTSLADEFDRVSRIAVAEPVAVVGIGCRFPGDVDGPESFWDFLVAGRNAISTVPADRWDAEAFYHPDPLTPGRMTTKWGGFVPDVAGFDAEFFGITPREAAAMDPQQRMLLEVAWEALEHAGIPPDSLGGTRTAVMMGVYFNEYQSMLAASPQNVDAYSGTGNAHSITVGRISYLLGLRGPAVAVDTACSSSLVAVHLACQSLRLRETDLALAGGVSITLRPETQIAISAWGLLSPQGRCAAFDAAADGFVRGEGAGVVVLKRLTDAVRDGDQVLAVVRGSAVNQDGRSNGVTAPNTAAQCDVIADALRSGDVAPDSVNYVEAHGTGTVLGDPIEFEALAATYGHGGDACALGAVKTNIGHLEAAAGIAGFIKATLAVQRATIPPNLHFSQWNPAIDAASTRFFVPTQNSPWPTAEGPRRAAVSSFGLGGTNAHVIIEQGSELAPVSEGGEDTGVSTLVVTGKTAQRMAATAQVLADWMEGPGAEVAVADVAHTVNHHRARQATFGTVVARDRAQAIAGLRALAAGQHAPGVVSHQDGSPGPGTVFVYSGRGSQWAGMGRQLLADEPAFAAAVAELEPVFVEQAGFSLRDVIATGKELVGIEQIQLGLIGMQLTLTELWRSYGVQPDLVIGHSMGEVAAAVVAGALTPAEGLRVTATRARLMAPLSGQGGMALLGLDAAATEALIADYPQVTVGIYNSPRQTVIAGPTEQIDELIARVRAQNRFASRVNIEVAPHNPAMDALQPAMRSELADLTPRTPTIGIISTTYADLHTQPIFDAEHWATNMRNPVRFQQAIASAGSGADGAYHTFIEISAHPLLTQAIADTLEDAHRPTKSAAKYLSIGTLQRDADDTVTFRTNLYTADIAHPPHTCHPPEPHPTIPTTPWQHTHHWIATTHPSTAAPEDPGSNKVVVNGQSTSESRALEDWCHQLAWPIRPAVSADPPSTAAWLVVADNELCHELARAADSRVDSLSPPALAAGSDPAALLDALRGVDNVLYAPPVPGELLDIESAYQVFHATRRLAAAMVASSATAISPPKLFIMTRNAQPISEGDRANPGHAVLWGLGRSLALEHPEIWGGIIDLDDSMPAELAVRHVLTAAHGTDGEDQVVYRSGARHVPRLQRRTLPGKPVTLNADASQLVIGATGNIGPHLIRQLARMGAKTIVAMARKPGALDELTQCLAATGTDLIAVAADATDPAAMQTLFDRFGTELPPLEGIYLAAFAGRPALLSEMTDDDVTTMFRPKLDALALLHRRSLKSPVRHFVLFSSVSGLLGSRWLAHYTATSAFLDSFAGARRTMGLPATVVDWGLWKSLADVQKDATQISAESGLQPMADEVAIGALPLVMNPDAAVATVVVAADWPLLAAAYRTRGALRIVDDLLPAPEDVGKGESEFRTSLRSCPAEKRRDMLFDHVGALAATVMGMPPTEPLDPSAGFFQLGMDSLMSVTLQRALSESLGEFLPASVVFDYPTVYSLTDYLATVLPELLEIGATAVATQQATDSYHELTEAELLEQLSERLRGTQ
pKd: −log10 of the molar value.
MEASURE_NAME: pKd

• C/C(=N\NC(=N)N)c1cc(NC(=O)CCCCCCCCC(=O)Nc2cc(/C(C)=N/NC(=N)N)cc(/C(C)=N/NC(=N)N)c2)cc(/C(C)=N/NC(=N)N)c1 = 6.96
